Reported composite z-score values for a set of molecules
Target: Concanavalin-A (Canavalia ensiformis)
Experiment: ConA small-molecule binders, primary screen, artefact control for SMM control protein annotation, biochemical, small-molecule microarray, Alexa647 label, 635 nm (AID 1127);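 note: z combines 667 nm emission intensity with signal-to-noise across three replicate slides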
Conditions: ConA-A647 binding fluorescence, higher = more signal

- Molecule: "CCN1C(C)=C(C(=O)OC)[C@@H](c2ccccc2)N2C(=O)[C@@]3(C(=O)OC)O[C@@]12[C@@H]1C(=O)N(c2ccccc2)C(=O)[C@@H]13"
  Experimental Target: "Concanavalin-A (Canavalia ensiformis)"
  composite z-score: 0.744
- Molecule: "O=C(NCC(F)(F)F)[C@@H]1c2ccccc2C(=O)N(Cc2ccccc2Cl)[C@H]1c1ccc(CO)cc1"
  Experimental Target: "Concanavalin-A (Canavalia ensiformis)"
  composite z-score: -0.907
- Molecule: "Cc1ccc(N2C(=O)c3ccccc3[C@](C)(C(=O)NCC(C)C)[C@@H]2c2ccc(CO)cc2)nc1"
  Experimental Target: "Concanavalin-A (Canavalia ensiformis)"
  composite z-score: -1.92

Note: attention shifts to another entry.
composite z-score for COC(=O)[C@H]1[C@@H]2COc3ccccc3[C@H]2N[C@H]1C(=O)OC ?
0.548

* * *

Molecular target: Pro-neuregulin-1, membrane-bound isoform (Homo sapiens) (UniProt Q02297)
Sequence (Q02297 whole entry, looked up, canonical isoform): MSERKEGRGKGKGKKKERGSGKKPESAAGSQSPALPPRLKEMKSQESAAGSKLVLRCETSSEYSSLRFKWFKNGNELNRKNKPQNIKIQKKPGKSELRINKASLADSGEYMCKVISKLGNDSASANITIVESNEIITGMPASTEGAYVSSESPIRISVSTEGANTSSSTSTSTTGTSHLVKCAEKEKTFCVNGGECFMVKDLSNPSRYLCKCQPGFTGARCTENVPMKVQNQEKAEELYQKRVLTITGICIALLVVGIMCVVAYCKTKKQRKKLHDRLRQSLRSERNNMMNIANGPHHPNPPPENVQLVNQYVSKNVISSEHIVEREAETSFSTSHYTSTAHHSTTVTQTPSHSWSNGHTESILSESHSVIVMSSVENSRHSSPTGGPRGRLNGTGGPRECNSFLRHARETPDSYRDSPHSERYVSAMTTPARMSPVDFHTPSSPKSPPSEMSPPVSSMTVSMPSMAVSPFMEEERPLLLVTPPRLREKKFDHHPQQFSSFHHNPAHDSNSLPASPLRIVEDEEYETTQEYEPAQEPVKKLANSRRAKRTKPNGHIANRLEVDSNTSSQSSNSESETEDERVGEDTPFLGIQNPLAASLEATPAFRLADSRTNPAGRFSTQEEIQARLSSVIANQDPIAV
Assay: NRG1 binders on small-molecule microarrays, primary screen, psychiatric disease protein project, biochemical, small-molecule microarray, fluorescence 635/667 (AID 1075);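 note: score combines 667 nm spot fluorescence with signal to noise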
Details: NRG1 binding, 635 nm fluorescence, higher = more signal
Binning of composite z-score into classes: LOW (below -0.003), MEDIUM (-0.003 to below 1), HIGH (1 or more)

The following compounds have reported results that may help.
- Compound: "COc1cccc([C@H]2N[C@H](C(=O)O)CC[C@@H]2C)c1"
  Classification: "LOW"
- Compound: "C=CCOC(=O)[C@@H]1[C@H]2C(=O)O[C@H](c3ccccc3)[C@H](c3ccccc3)N2[C@H](c2ccc(OCCOC(=O)[C@H]3C[C@H]4C(=O)N[C@@H](CCCCNC(C)=O)C(=O)N4[C@H]3c3ccc(O)cc3)cc2)[C@@]12C(=O)Nc1ccc(I)cc12"
  Classification: "HIGH"
- Compound: "COC(=O)C1=CC(c2ccc(CO)cc2)=CC(C2CC2)N(Cc2sc3ccccc3c2Cl)C=C1C(=O)OC (stereo not given)"
  Classification: "HIGH"
- Compound: "COc1ccc(C(O)C2C=CC3C(=O)N(C)C(=O)C3N2N2CCCCC2)cc1OCc1ccccc1 (stereo not given)"
  Classification: "HIGH"
- Compound: "CCCNC(=O)[C@@]1(Sc2ccc(C)cc2)CC(=O)N(Cc2ccccc2Cl)[C@@H]1c1ccc(CO)cc1"
  Classification: "LOW"
- Compound: "O=C1c2ccccc2[C@](Cc2ccccc2I)(C(=O)NCc2ccccc2)[C@H](c2ccc(CO)cc2)N1Cc1ccccc1C(F)(F)F"
  Classification: "MEDIUM"
- Compound: "O=C1O[C@@H](c2ccccc2)[C@@H](c2ccccc2)N2[C@@H](c3ccc(O)cc3)[C@]3(C(=O)Nc4ccc(C#CC5(O)CCCCCC5)cc43)[C@@H](C(=O)Nc3nc4ccccc4s3)[C@H]12"
  Classification: "HIGH"
- Compound: "CO[C@@H]1COC(=O)CC=C[C@@H](C)[C@H](OC)COC(=O)CC=C[C@H]1C"
  Classification: "LOW"

Exam item: assign CO[C@@H]1COC(=O)[C@H](C)NC(=O)CC=C[C@@H](C)[C@H](OC)COC(=O)[C@H](C)NC(=O)CC=C[C@H]1C to the correct category.
MEDIUM

Now consider O=C/C=C/c1ccc(/C=C/c2ccccc2)cc1 .
LOW

Now consider C[N+](C)(C)CCCCNC(=O)[C@H]1C[C@H]2C(=O)NCC(=O)N2[C@H]1c1cccc(OCCO)c1 .
MEDIUM

Now consider COc1cc(Cc2cc3c(c(CCc4ccccc4)n2)[Si](C(C)C)(C(C)C)OC3)cc(OC)c1OC .
LOW

Now consider COc1ccc([C@H]2C[C@H]3C(Br)=C[C@]2(OC)C(=O)[C@]32CO2)cc1 .
LOW

* * *

Test system: Fibrinogen (Alexa647-labelled)
Assay: fibrinogen binders on compound microarrays, profiling panel, artefact control for SMM control-protein annotation, biochemical, small-molecule microarray, 635/667 nm fluorescence (AID 1131);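 note: z-score merges 667 nm fluorescence with per-spot signal-to-noise over triplicate slides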
Conditions: fibrinogen-A647 binding fluorescence, higher = more signal
Reported composite z-score values for a set of compounds
Answer as a number with no unit attached.

Below, 8 compounds whose answers are already recorded.
- Compound: "CO[C@@H]1COC(=O)CC=C[C@H](C)COC(=O)[C@H](Cc2ccccc2)NC(=O)CC=C[C@H]1C"
  composite z-score: -0.811
- Compound: "C=CCN1C(=O)[C@]2(O[C@H](CCn3cc(CCO)nn3)[C@@H]([Si](C)(C)c3ccc(OC)cc3)[C@@H]2C)c2cc(NC(=O)c3ccc(OC)cc3)ccc21"
  composite z-score: 0.708
- Compound: "CC(C)N1CC=CC23O[C@@H]4/C=C\\CCCOC(=O)C4[C@H]2C(=O)N(CCCCCO)[C@@H]3C1=O (stereo not given in full)"
  composite z-score: -3.13
- Compound: "O=C(NCC(F)(F)F)[C@@H]1c2ccccc2C(=O)N(Cc2ccccc2Cl)[C@H]1c1ccc(CO)cc1"
  composite z-score: -0.81
- Compound: "CCN1C(C)=C(C(=O)OC)[C@@H](c2ccccc2)N2C(=O)[C@](O)(C(=O)OC)[C@@H](c3ccccc3)C(C(C)=O)=C12"
  composite z-score: -1.11
- Compound: "C=CC[C@]1(C(N)=O)N=C(c2ccc(OCCCO)cc2)O[C@H]1c1ccccc1CN=[N+]=[N-]"
  composite z-score: 1.01
- Compound: "CCC(=O)[C@]12O[C@@]3([C@@H]4C(=O)OCC[C@@H]41)N(Cc1ccccc1)C(C)=C(C(=O)OC)[C@@H](c1ccccc1)N3C2=O"
  composite z-score: -1.35
- Compound: "CC(=O)NCCCC[C@@H]1NC(=O)[C@@H]2C[C@H](C(=O)NCCCCCNC(=O)CS)[C@H](c3ccc(O)cc3)N2C1=O"
  composite z-score: -0.786

composite z-score for CO[C@@H]1COC(=O)[C@H](C)NC(=O)CC=C[C@@H](C)[C@H](OC)COC(=O)[C@H](C)NC(=O)CC=C[C@H]1C ?
0.38

Now consider O=C1OCC=C[C@H]2OC34C=CCN(Cc5ccccc5)C(=O)[C@H]3N(CCCCCO)C(=O)[C@@H]4[C@@H]12 (stereo not given in full) .
-0.736

Now consider C=C(CCCC)/C(=C/C[C@@H](OC(=O)c1ccncc1)c1cccc(OCCO)c1)c1cc(C(=O)OC)ccc1OC .
0.939

Now consider CN(C)CCCC[C@@H]1NC(=O)[C@@H]2C[C@H](C(=O)NCCCCCNC(=O)CS)[C@H](c3ccc(O)cc3)N2C1=O .
0.946

Now consider C[N+](C)(C)CCCCNC(=O)[C@@H]1C[C@@H]2C(=O)N3CCC[C@H]3C(=O)N2[C@@H]1c1cccc(OCCO)c1 .
-0.181

* * *

Assay: mitochondrial membrane potential change in A549 cells, profiling panel, cell-based, JC-1 fluorescence, basal, 24 h, 100 nL (AID 1138);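 note: A549 lung adenocarcinoma cells under basal conditions with no added stimulus; test concentration not given here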
Settings: higher = more signal
Measured Attribute: z-score

- Molecule: "[N-]=[N+]=NCc1ccccc1[C@H]1OC(c2ccc(OCCCO)cc2)=N[C@@]1(Cc1ccccc1N=[N+]=[N-])C(=O)NCc1ccccc1"
  z-score: 0.623

z-score for NC(=O)NCC#Cc1ccc2c(c1)[C@]1(C(=O)N2)[C@H](C(N)=O)[C@H]2C(=O)O[C@H](c3ccccc3)[C@H](c3ccccc3)N2[C@@H]1c1ccccc1OCCO ?
-0.525

Now consider C=CCNC(=O)[C@@H]1[C@H]2C(=O)O[C@H](c3ccccc3)[C@H](c3ccccc3)N2[C@H](c2ccc(OCCO)cc2)[C@@]12C(=O)N(C(=O)OCCOC)c1ccc(C#CC3(O)CCCCCC3)cc12 .
-1

Now consider C=CC[C@@]1(C(=O)NCC(O)CO)N=C(c2ccc(OCCCO)cc2)O[C@@H]1c1ccccc1CN=[N+]=[N-] (stereo not given in full) .
1.37

Now consider O=C1C[C@@](C(=O)NC2CC2)(c2ccc([N+](=O)[O-])cc2)[C@@H](c2ccc(CO)cc2I)N1CC12CC3CC(CC(C3)C1)C2 .
-0.558

Now consider COc1cc([C@@H]2N[C@H](C(=O)O)Cc3c2[nH]c2ccccc32)cc(OC)c1OC .
0.559

Now consider C=C(C(=O)CC[C@H](OC(=O)c1ccccc1-c1ccccc1C(=O)O)c1ccc(CO)o1)C(C)C .
-0.528

* * *

Test: PSAC antagonists in infected red cells, primary screen, cell-based, P. falciparum Indochina, OD700, 1 h (AID 1154)
Conditions: P. falciparum Indochina infected RBC osmotic lysis, higher = more signal, called active from +8 up or from −8 down
Measured Attribute: z-score
Answer as a number with no unit attached.

- Molecule: "C=C(CCCC)/C(=C/C[C@H](OC(=O)c1ccncc1)c1cccc(OCCO)c1)c1cc(C(=O)OC)ccc1OC"
  z-score: 21.6
- Molecule: "CCOC(=O)C1=C[C@@H](c2ccccc2)N(S(=O)(=O)c2ccc(C)cc2)[C@H]1c1ccc(F)cc1"
  z-score: 1.66
- Molecule: "O=C/C=C/c1ccccc1Cl"
  z-score: 0.159

z-score for CCN1C(C)=C(C(=O)OC)[C@@H](c2ccccc2)N2C(=O)[C@](O)(C(=O)OC)[C@@H](c3ccccc3)C(C(C)=O)=C12 ?
2.31

Now consider CC(C)[Si](OCCCNS(=O)(=O)c1ccc(Br)cc1)(C(C)C)C(C)C .
0.869

Sourced from PubChem BioAssay
